Biological target: human recombinant Top1 (Homo sapiens, UniProt P11387)
Sequence (P11387 whole entry): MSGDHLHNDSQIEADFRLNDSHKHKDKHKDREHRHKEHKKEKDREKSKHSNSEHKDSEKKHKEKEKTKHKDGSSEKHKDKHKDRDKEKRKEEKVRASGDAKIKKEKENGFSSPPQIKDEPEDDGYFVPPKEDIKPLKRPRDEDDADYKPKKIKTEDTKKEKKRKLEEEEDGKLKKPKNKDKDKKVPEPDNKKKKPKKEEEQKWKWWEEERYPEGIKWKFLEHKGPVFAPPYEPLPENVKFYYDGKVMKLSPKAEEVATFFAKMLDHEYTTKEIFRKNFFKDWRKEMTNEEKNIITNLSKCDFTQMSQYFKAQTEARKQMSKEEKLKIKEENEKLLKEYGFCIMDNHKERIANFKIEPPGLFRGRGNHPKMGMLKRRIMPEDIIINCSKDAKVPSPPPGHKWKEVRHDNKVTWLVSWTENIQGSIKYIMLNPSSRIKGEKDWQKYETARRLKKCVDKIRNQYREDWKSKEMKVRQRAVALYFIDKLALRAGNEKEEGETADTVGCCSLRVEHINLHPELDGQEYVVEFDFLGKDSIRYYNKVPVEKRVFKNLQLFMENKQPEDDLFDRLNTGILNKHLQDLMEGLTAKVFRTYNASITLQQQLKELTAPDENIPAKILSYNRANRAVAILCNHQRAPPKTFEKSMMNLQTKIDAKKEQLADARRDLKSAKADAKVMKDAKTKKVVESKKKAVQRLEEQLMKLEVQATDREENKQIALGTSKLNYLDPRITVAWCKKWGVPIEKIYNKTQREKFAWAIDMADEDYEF
Test: Top1-mediated DNA cleavage assay
Format: biochemical
Details: semiquantitative, relative Top1 inhibitory potency vs compounds 1 and 2; 117-bp DNA fragment
experimental.endpoint: Top1 cleavage

Guide cases for Top1 cleavage, answers given:
molecule	measured.target	experimental.endpoint	experimental.value
O=C1c2cccnc2-c2c1c1ccc([N+](=O)[O-])cc1c(=O)n2CCCN1CCOCC1	human recombinant Top1 (Homo sapiens, UniProt P11387)	Top1 cleavage	+++
COc1cc2c3c(n(CCCN(C)C)c(=O)c2cc1OC)-c1ncccc1C3=O	human recombinant Top1 (Homo sapiens, UniProt P11387)	Top1 cleavage	+++
O=C1c2cccnc2-c2c1c1ccccc1c(=O)n2CCCNCCO	human recombinant Top1 (Homo sapiens, UniProt P11387)	Top1 cleavage	+
O=C1c2cccnc2-c2c1c1ccccc1c(=O)n2CCCn1ccnc1	human recombinant Top1 (Homo sapiens, UniProt P11387)	Top1 cleavage	++
CN(C)CCCn1c2c(c3ccccc3c1=O)C(=O)c1cccnc1-2	human recombinant Top1 (Homo sapiens, UniProt P11387)	Top1 cleavage	+++
CN(C)CCCn1c2c(c3ccc([N+](=O)[O-])cc3c1=O)C(=O)c1ccccc1-2	human recombinant Top1 (Homo sapiens, UniProt P11387)	Top1 cleavage	+++

Task: Using the record for CN(C)CCCn1c2c(c3ccccc3c1=O)C(=O)c1ccccc1-2 [Compound 33, reference compound] , state its measured Top1 cleavage.
Result: +++

Task: Using the record for COc1cc2c3c(n(CCCN4CCOCC4)c(=O)c2cc1OC)-c1ncccc1C3=O , state its measured Top1 cleavage.
Result: ++

Task: Using the record for COc1cc2c3c(n(CCCn4ccnc4)c(=O)c2cc1OC)-c1ncccc1C3=O , state its measured Top1 cleavage.
Result: ++
